Test system: galium (catchweed bedstraw, Galium aparine)
measurement description: Test A greenhouse herbicide test, postemergence
Format: in vivo
experimental parameters: 500 g ai/ha, 0 to 100 scale, 0 is no effect, 100 is complete control
List of Galium plant response rating values.
property label: Galium plant response rating

Cc1cc(C)c2ccccc2c1-c1c(O)c(C)nn(C)c1=O
100
Cc1sc2ccccc2c1-c1c(O)cnn(C)c1=O
90
Cc1ccc2oc(C)c(-c3c(O)c(-c4ccccc4)nn(C)c3=O)c2c1
0
Cc1nn(C)c(=O)c(-c2cccc3ccc(I)cc23)c1O
90
Cc1ccc2ccccc2c1-c1c(O)c(I)nn(C)c1=O
90

---

Test system: pigweed (Amaranthus retroflexus)
measurement description: Test C greenhouse herbicide test, pre- and postemergence
Assay type: in vivo
experimental parameters: Preemergence, 62 g ai/ha; scale 0 to 100, 0 is no effect, 100 is complete control
property label: Plant response rating, Pigweed

Cc1cc(C)c2sc(C)c(-c3c(O)c(C)nn(C)c3=O)c2c1 [Compound 2]
100
Cc1sc2ccccc2c1-c1c(O)c(Cl)nn(C)c1=O [Compound 89]
100
Cn1nc(Br)c(O)c(-c2cccc3ccccc23)c1=O [Compound 20]
100
Cc1nn(C)c(=O)c(-c2c(C)sc3ccc(Br)cc23)c1O [Compound 22]
100
Cc1nn(C)c(=O)c(-c2ccc(F)c3ccccc23)c1O [Compound 41]
100
Cc1nn(C)c(=O)c(-c2ccc(Cl)c3ccccc23)c1O [Compound 139]
98
CCC(=O)Oc1c(OC)nn(C)c(=O)c1-c1c(C)sc2ccc(Cl)cc12 [Compound 131]
100
Cc1nn(C)c(=O)c(-c2c(C)sc3ccc(C(F)(F)F)cc23)c1O [Compound 121]
98

---

Test system: ryegrass, Italian (Italian ryegrass, Lolium multiflorum)
measurement description: Test D controlled growth environment herbicide test, pre- and postemergence
Type: in vivo
experimental parameters: Preemergence, 62 g ai/ha; scale 0 to 100 (0 no effect, 100 complete control)
Catalogue of Plant response rating, Ryegrass, Italian readings, one per entry.
property label: Plant response rating, Ryegrass, Italian

Cc1nn(C)c(=O)c(-c2ccc(F)c3ccccc23)c1O
100
Cc1nn(C)c(=O)c(-c2c(C)sc3ccc(Br)cc23)c1O
90
Cc1ccc2ccccc2c1-c1c(OC(=O)OC(C)C)c(C)nn(C)c1=O
75
CCc1sc2c(C)cc(C)cc2c1-c1c(O)c(C)nn(C)c1=O
75
Cc1ccc2sc(C)c(-c3c(OC(=O)OC(C)C)c(C)nn(C)c3=O)c2c1
85

---

# Plant response rating, Ryegrass, Italian annotations
System: ryegrass, Italian (Italian ryegrass, Lolium multiflorum)
measurement description: Test D controlled growth environment herbicide test, pre- and postemergence
Type: in vivo
experimental parameters: Postemergence, 125 g ai/ha; visual rating on scale 0 (no effect) to 100 (complete control), 14 to 21 d
property label: Plant response rating, Ryegrass, Italian

Cc1nn(C)c(=O)c(-c2cccc3ccc(Br)cc23)c1O [Compound 126]
90
Cc1ccc2sc(Br)c(-c3c(O)c(C)nn(C)c3=O)c2c1 [Compound 79]
85
Cc1cc2ccccc2c(-c2c(O)c(C)nn(C)c2=O)c1C [Compound 34]
95
Cc1cc(C)c2ccccc2c1-c1c(O)c(C)nn(C)c1=O [Compound 21]
85
COC(=O)Oc1c(C)nn(C)c(=O)c1-c1c(C)sc2ccc(C)cc12 [Compound 80]
98
